System: OCI-LY3 cells
Experiment: Resazurin cell viability assay in DLBCL cells (OCI-LY3)
Assay type: cell-based
Settings: Homo sapiens, OCI-Ly3, 72 h, OCI-LY3 cells (BTK independent), 50% growth inhibition, read-out: OCI-LY3 Prol GI50
Catalogue of compounds with associated GI50
Give your result in µM as a bare value.

Reference set (3 entries):
Test item COc1ccc(C(=O)N2CCC(CN3CCC(COc4ccc(-c5cc6c(-c7cc(F)cc(NC(=O)N8C[C@H](CC(C)C)[C@@H](O)C8)c7C)ncnc6[nH]5)cc4)CC3)CC2)cc1N1CCC(=O)NC1=O [Compound 14] ; OCI-LY3 cells; reported GI50 was 3.82

Test item COc1ccc(C(=O)N2CCC(CCN3CCC(OCc4ccc(-c5cc6c(-c7cc(F)cc(NC(=O)N8C[C@@H](CC(C)C)[C@H](O)C8)c7C)ncnc6[nH]5)cc4)CC3)CC2)cc1N1CCC(=O)NC1=O [Compound 21] ; OCI-LY3 cells; reported GI50 was 3.6

Test item COc1ccc(C(=O)N2CCC(OCCN3CCC(Oc4ccc(-c5cc6c(-c7cc(F)cc(NC(=O)N8C[C@H](CC(C)C)[C@@H](O)C8)c7C)ncnc6[nH]5)cc4)CC3)CC2)cc1N1CCC(=O)NC1=O [Compound 20] ; OCI-LY3 cells; reported GI50 was 3.7

Further cases:
Test item COc1ccc(C(=O)N2CCC(CN3CCN(Cc4ccc(-c5cc6c(-c7cc(F)cc(NC(=O)N8CC(O)C(CC(C)C)C8)c7C)ncnc6[nH]5)cc4)CC3)CC2)cc1N1CCC(=O)NC1=O (racemic) [Compound 9] ; OCI-LY3 cells; reported GI50 was 7.15

Test item COc1ccc(C(=O)N2CCC3(CCN(Cc4ccc(-c5cc6c(-c7cc(F)cc(NC(=O)N8C[C@H](CC(C)C)[C@@H](O)C8)c7C)ncnc6[nH]5)cc4)CC3)CC2)cc1N1CCC(=O)NC1=O [Compound 6] ; OCI-LY3 cells; reported GI50 was 9.92

---

Target: BTK-GFP (Homo sapiens, UniProt Q06187+Q96SW2)
Construct: the BTK open reading frame (ORF) was first shuttled from a pcDNA-DEST40-BTK vector (Invitrogen library ID INV_20090504v1); expressed in transfected cells; host or cells: HEK293A cells (Invitrogen R70507), lentiviral transduction with pLenti6-BTK-GFP-Ires-RFP, blasticidin-selected
Sequence (Q06187 whole entry): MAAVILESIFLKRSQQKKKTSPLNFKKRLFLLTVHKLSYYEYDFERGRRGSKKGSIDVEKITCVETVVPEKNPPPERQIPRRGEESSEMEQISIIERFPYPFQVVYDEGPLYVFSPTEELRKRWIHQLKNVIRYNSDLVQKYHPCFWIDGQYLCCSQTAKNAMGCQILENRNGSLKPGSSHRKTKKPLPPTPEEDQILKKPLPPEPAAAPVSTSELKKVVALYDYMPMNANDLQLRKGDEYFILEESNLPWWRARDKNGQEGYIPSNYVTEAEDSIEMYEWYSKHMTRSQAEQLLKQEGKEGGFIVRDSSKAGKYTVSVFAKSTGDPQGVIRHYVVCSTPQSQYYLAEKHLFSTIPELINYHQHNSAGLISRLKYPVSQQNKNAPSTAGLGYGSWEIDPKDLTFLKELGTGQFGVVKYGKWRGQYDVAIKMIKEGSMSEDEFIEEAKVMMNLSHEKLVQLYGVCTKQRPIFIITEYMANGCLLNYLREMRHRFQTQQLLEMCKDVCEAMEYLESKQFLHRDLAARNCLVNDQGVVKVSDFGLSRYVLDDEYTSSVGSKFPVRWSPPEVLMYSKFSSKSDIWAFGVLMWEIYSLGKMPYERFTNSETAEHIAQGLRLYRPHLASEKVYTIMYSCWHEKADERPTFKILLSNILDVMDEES
Sequence (Q96SW2 whole entry): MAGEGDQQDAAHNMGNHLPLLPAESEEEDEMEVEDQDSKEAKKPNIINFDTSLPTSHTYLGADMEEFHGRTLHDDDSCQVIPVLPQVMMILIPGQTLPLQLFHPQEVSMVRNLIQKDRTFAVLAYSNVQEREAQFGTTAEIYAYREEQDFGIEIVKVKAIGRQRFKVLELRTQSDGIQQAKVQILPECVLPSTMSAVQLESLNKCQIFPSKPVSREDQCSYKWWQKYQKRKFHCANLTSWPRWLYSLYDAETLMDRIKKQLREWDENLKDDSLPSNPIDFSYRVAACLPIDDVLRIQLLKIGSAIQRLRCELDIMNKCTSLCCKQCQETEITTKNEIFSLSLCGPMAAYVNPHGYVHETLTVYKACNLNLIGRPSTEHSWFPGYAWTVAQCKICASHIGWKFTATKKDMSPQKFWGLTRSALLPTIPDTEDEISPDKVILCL
Sequence (Q16531 whole entry partner): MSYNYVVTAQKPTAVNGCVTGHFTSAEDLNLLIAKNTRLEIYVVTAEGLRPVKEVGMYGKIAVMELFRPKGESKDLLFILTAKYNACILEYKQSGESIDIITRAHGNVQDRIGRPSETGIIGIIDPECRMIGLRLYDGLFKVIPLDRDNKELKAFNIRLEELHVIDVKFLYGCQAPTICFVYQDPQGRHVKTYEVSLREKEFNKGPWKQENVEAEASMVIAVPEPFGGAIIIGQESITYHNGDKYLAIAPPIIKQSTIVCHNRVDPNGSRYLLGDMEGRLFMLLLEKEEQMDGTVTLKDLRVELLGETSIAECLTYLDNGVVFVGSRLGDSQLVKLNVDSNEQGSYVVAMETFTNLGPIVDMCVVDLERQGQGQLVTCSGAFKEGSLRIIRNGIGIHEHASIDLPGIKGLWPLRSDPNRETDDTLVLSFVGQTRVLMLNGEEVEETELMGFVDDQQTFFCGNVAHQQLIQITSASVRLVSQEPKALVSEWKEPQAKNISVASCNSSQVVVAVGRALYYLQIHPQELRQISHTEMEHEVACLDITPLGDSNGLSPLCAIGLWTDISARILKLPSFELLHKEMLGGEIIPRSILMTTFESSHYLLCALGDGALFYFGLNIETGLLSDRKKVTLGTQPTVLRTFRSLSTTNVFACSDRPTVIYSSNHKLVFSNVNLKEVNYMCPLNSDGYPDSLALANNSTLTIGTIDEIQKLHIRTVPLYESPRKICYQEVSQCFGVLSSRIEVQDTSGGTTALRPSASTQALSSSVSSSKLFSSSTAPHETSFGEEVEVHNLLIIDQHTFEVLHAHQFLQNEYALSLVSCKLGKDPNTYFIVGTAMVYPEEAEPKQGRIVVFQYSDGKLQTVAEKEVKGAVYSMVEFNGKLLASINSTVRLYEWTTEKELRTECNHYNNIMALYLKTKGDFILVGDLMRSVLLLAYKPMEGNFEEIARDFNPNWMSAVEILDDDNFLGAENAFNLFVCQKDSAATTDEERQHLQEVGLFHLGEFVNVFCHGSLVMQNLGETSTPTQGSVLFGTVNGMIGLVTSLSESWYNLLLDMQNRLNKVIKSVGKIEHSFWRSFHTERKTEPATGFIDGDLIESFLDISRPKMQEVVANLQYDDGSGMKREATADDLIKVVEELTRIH
Test: BTK-GFP protein abundance flow cytometry assay in HEK293A cells
Type: cell-based
Settings: 24 h, concentration at which 50% maximal degradation was observed
Catalogue of compounds with associated DC50
Give your result in nM as a bare value.

Reference set (3 entries):
response.value for COc1ccc(C(=O)N2CCC(OC3CCN(CCc4ccc(-c5cc6c(-c7cc(F)cc(NC(=O)N8C[C@H](CC(C)C)[C@@H](O)C8)c7C)ncnc6[nH]5)cc4)CC3)CC2)cc1N1CCC(=O)NC1=O (field: DC50) = 0.5

response.value for COc1ccc(C(=O)N2CCC3(CCN(CCc4ccc(-c5cc6c(-c7cc(F)cc(NC(=O)N8C[C@H](CC(C)C)[C@@H](O)C8)c7C)ncnc6[nH]5)cc4)CC3)CC2)cc1N1CCC(=O)NC1=O (field: DC50) = 1.8

response.value for COc1ccc(C(=O)N2CCC(OCCN3CCN(Cc4ccc(-c5cc6c(-c7cc(F)cc(NC(=O)N8C[C@H](CC(C)C)[C@@H](O)C8)c7C)ncnc6[nH]5)cc4)CC3)CC2)cc1N1CCC(=O)NC1=O (field: DC50) = 1.4

Further cases:
response.value for COc1ccc(C(=O)N2CCC(OCCN3CCC(Oc4ccc(-c5cc6c(-c7cc(F)cc(NC(=O)N8C[C@H](CC(C)C)[C@@H](O)C8)c7C)ncnc6[nH]5)cc4)CC3)CC2)cc1N1CCC(=O)NC1=O (field: DC50) = 1.1

response.value for COc1ccc(C(=O)N2CCC3(CCN(Cc4ccc(-c5cc6c(-c7cc(F)cc(NC(=O)N8C[C@@H](CC(C)C)[C@H](O)C8)c7C)ncnc6[nH]5)cc4)CC3)CC2)cc1N1CCC(=O)NC1=O [Compound 1] (field: DC50) = 164

response.value for COc1ccc(C(=O)N2CCC(CCN3CCC(OCc4ccc(-c5cc6c(-c7cc(F)cc(NC(=O)N8C[C@H](CC(C)C)[C@@H](O)C8)c7C)ncnc6[nH]5)cc4)CC3)CC2)cc1N1CCC(=O)NC1=O (field: DC50) = 1.4

response.value for COc1ccc(C(=O)N2CCC3(CCN(CCc4ccc(-c5cc6c(-c7ccc(F)c(NC(=O)N8C[C@H](CC(C)C)[C@@H](O)C8)c7C)ncnc6[nH]5)cc4)CC3)CC2)cc1N1CCC(=O)NC1=O (field: DC50) = 5.5

response.value for COc1ccc(C(=O)N2CCC(CN3CCN(Cc4ccc(-c5cc6c(-c7cc(F)cc(NC(=O)N8C[C@@H](CC(C)C)[C@H](O)C8)c7C)ncnc6[nH]5)cc4)CC3)CC2)cc1N1CCC(=O)NC1=O (field: DC50) = 15.5

response.value for COc1ccc(C(=O)N2CCC3(CCN(Cc4ccc(-c5cc6c(-c7cc(F)cc(NC(=O)N8C[C@H](CC(C)C)[C@@H](O)C8)c7C)ncnc6[nH]5)cc4)CC3)CC2)cc1N1CCC(=O)NC1=O (field: DC50) = 3.4
